Taken from ChEMBL document CHEMBL5604062.

- experimental.target: Nonstructural protein 3 (Zika virus, UniProt A0A024AXB9)
- Sequence (A0A024AXB9 whole entry): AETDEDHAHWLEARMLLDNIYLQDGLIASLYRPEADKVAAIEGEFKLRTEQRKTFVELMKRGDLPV
- measurement.notes: Functional biochemical assay to identify treatments for viral infectious disease that targets Zika NS2B-NS3 protease. Utilizing a direct enzyme activity measurement method, reading the fluorescence intensity is used to characterize the relative potency of inhibitors as IC50.
- Design: species or system PRVABC59
pIC50: −log10 of the molar value.
property.name: pIC50

>>> print(df.to_string())
                                 smiles_text                       experimental_target  property_name  meas_value
 0  CCNC(=O)Nc1cc(Cl)cc(C(=O)Nc2cccc(-n3nn[nH]c3=O)c2)c1  Nonstructural protein 3 (Zika virus, UniProt A0A024AXB9)          pIC50      < 4.00
 1  NCc1cccc(NC(=O)C[C@@H](NC(=O)OCc2ccccc2)c2ccc3c(c2)OCO3)c1  Nonstructural protein 3 (Zika virus, UniProt A0A024AXB9)          pIC50      < 4.00
 2  NCc1cccc(NC(=O)[C@H](NC(=O)OCc2ccccc2)c2ccc(Br)cc2F)c1  Nonstructural protein 3 (Zika virus, UniProt A0A024AXB9)          pIC50        4.14
 3  c1cc(CN2CCC(c3c[nH]c4cccnc34)CC2)c2cn[nH]c2c1  Nonstructural protein 3 (Zika virus, UniProt A0A024AXB9)          pIC50      < 4.00
 4  CCn1ccnc(N2C[C@@H](OC(=O)OC)[C@H](c3c[nH]c4ccccc34)C2)c1=O  Nonstructural protein 3 (Zika virus, UniProt A0A024AXB9)          pIC50      < 4.00
 5  Cc1nc(C2CC2)[nH]c1C(=O)Nc1cc(-c2cccnc2)ccn1  Nonstructural protein 3 (Zika virus, UniProt A0A024AXB9)          pIC50      < 4.60
 6  O=C1NC[C@H](c2ccc(OCc3ccccc3)c(Br)c2)N1C(=O)OCc1ccccc1  Nonstructural protein 3 (Zika virus, UniProt A0A024AXB9)          pIC50      < 4.00
 7               FC(F)(F)c1nnc(COc2cncnc2)s1  Nonstructural protein 3 (Zika virus, UniProt A0A024AXB9)          pIC50      < 4.00
 8  Cn1nc(C(=O)Nc2cccc(CN)c2)c2c1CCS(=O)(=O)C2  Nonstructural protein 3 (Zika virus, UniProt A0A024AXB9)          pIC50      < 4.00
 9  O=C(Nc1cc(Cl)cc(C(=O)NC[C@@]23CC[C@H](CNC2)C3)c1)OCc1ccccc1  Nonstructural protein 3 (Zika virus, UniProt A0A024AXB9)          pIC50      < 4.00
10  CC(C)CO[C@]1(C)C(=O)Nc2cc(F)cc(C(=O)Nc3ccc4c(c3)CNC4)c21  Nonstructural protein 3 (Zika virus, UniProt A0A024AXB9)          pIC50        5.61
11  NCc1ccc(Oc2ccc(S(=O)(=O)Nc3ccc(Cl)cc3C(=O)NCC(F)(F)F)cc2)cc1  Nonstructural protein 3 (Zika virus, UniProt A0A024AXB9)          pIC50      < 4.00
12  O=C(Nc1cc(Cl)cc(C(=O)NC[C@H]2C[C@@H]2C(=O)O)c1)OCc1ccccc1  Nonstructural protein 3 (Zika virus, UniProt A0A024AXB9)          pIC50      < 4.00
13  O=C(Nc1cc(Cl)cc([C@H]2CN(Cc3ccccc3)C[C@@H]2c2cccc(-c3nn[nH]n3)c2)c1)OCc1ccccc1  Nonstructural protein 3 (Zika virus, UniProt A0A024AXB9)          pIC50        5.16
14  N[C@H]1CC[C@H](NC(=O)[C@@H](NC(=O)OCc2ccccc2)c2ccc(OCc3ccccc3)cc2)C1  Nonstructural protein 3 (Zika virus, UniProt A0A024AXB9)          pIC50      < 4.00
15  CC[C@H](Cc1nnn[nH]1)c1ccc(NC(=O)[C@H]2[C@H]3CCCCC[C@H]3[C@H]2NC(=O)OCc2ccccc2)cc1  Nonstructural protein 3 (Zika virus, UniProt A0A024AXB9)          pIC50        4.28
16  c1cc(CN2CCC(c3c[nH]c4ncccc34)CC2)c2[nH]ccc2c1  Nonstructural protein 3 (Zika virus, UniProt A0A024AXB9)          pIC50      < 4.00
17  C[C@H]1C(=O)Nc2ccc(C(=O)Nc3ccc4c(c3)CNC4)cc21  Nonstructural protein 3 (Zika virus, UniProt A0A024AXB9)          pIC50        4.97
18  CCn1cc(-c2cccc(-c3ccccc3)c2)nc(N2CC[C@@H](CO)C2)c1=O  Nonstructural protein 3 (Zika virus, UniProt A0A024AXB9)          pIC50      < 4.00

---

Documented pIC50 across a set of compounds
- experimental.target: Nonstructural protein 3 (Zika virus, UniProt A0A024AXB9)
- measurement.notes: Functional biochemical assay to identify treatments for viral infectious disease that targets Zika NS2B-NS3 protease. Utilizing a direct enzyme activity measurement method, reading the fluorescence intensity is used to characterize the relative potency of inhibitors as IC50.
- Set-up: species or system PRVABC59
pIC50: −log10 of the molar value.
property.name: pIC50

>>> df
                                    compound  meas_value
 0  O=C(Nc1cc(Cl)cc(C(=O)NC[C@H]2CC3(CNC3)CO2)c1)OCc1ccccc1        4.34
 1  O=C(Nc1ccc2c(c1)CN[C@H]2c1ccccc1)c1cc(F)cc2[nH]ncc12        5.72
 2  O=C1Cc2cc(NC(=O)c3cc(Cl)cc(NC(=O)OCc4ccccc4)c3)ccc2N1      < 4.00
 3    O=C(O)c1cccc(CCc2cc(Cl)cc3[nH]ncc23)c1      < 4.00
 4  Cn1ncc(CN2CCC([C@H](NC(=O)OCc3ccccc3)C(=O)Nc3cccc(CN)c3)CC2)n1      < 4.00
 5  CC(C)(C)NC(=O)[C@H](Nc1ccc2c(c1)CNC2)c1cc(Cl)cc2[nH]ncc12        5.51
 6  N#C[C@H](Nc1cc(Cl)cc(NC(=O)OCc2ccccc2)c1)c1ccc(-c2nn[nH]n2)cc1        4.78
 7  CCn1c(=O)c(N2CC3(COC3)[C@](F)(CO)C2)nc2ccccc21      < 4.00
 8  CCOC(=O)c1[nH]c(C)c(C(=O)Nc2cccc(CN)c2)c1CC      < 4.00
 9  COC(=O)c1cc(Cl)cc([C@@H]2CN(Cc3ccccc3)C[C@H]2c2cccc(CN)c2)c1        4.32
10        O=C(Nc1ccc2c(c1)CNC2)c1ncnc2ccsc12      < 4.00
11  CCCN1C(=O)[C@](C#N)(Nc2cccc(-c3nn[nH]n3)c2)c2cc(Cl)ccc21      < 4.00
12  O=C1Cc2cc(NC(=O)c3cc(Cl)cc4[nH]ncc34)ccc2N1      < 4.00
13  O=C(Nc1ccc2c(c1)CNC2)c1cc(F)cc2[nH]c(-c3cnccc3O)nc12        6.89
14  COC(=O)c1csc2cc(C(=O)N3CCCc4cc(CCN)ccc43)[nH]c12      < 4.00
15  CCn1c(=O)c(N2CC[C@H](NC(=O)NC3CC3)C2)nc2ccccc21      < 4.00
16  Cn1nc(C(=O)Nc2cc([C@H]3CCOC3)ccn2)cc1C1CC1      < 4.60
17        O=C(Nc1ccc2c(c1)CNC2)c1ccc2ncsc2n1        4.63
18  O=C(Nc1cc(-c2cccnc2)ccn1)c1cc(C2CC2)[nH]n1      < 4.60
19                   O=C(NCc1nccs1)c1sccc1Cl      < 4.00
20  N[C@H]1CCN(c2ccc(NS(=O)(=O)c3ccc(Oc4ccccc4Cl)cc3)cc2)C1        4.43
21  O=C(NCC(F)F)[C@H](Nc1ccc2c(c1)CNC2)c1cc(Br)ccc1C1CC1        6.45
22  CCn1cc(-c2cc(F)ccc2C)nc(N2CC[C@@H](CO)C2)c1=O      < 4.00
23  NCc1cccc(NC(=O)[C@H](NS(=O)(=O)c2ccc(Oc3ccccc3Cl)cc2)c2ccc(OCc3ccccc3)cc2)c1        4.18
24    O=C(Nc1cc(-c2cccnc2)ccn1)c1cnn2c1CCCC2        5.10
25  C[C@](O)(Cc1cc(Cl)cc(NC(=O)OCc2ccccc2)c1)c1cccc(CN)c1      < 4.00
26             CC[C@H]1CCN(c2nccn(CC)c2=O)C1      < 4.00
27  O=C(Nc1ccc2[nH]c(=O)[nH]c2c1)c1cc(F)cc2[nH]ncc12      < 4.60
28  O=C(Nc1ccc2c(c1)CNC2)c1cc(Cl)cc2[nH]c(-c3cnccc3O)nc12        6.40
29  N[C@H]1CC[C@H](NC(=O)c2cc(Cl)cc(NC(=O)OCc3ccccc3)c2)C1        4.16
30  O=C(O)C1CCC2(CC1)CC(Cc1c[nH]c3ccc(Cl)cc13)C2 (stereo unspecified)      < 4.00
31  CC(C)(C#N)CS(=O)(=O)N1CCC([C@H](NC(=O)OCc2ccccc2)C(=O)Nc2cccc(CN)c2)CC1      < 4.00
32  O=C(Nc1ccc2c(c1)CNC2)c1cc(C(F)(F)F)c2cn[nH]c2n1      < 4.60
33  CC(C)(C)OC(=O)N1Cc2cc(NC(=O)c3cc(Cl)cc4[nH]ncc34)cc(Br)c2C1        4.79
34  Cn1nc(NC(=O)c2cc(Cl)cc(NC(=O)OCc3ccccc3)c2)c2c1CNC2      < 4.00
35  CC(C)[C@@H]1[C@H](C(=O)Nc2cccc(CN)c2)CCN1C(=O)OCc1ccccc1      < 4.00
36  Cc1cc(C)c([C@@H](NC(=O)OCc2ccccc2)C(=O)Nc2cccc(CN)c2)c(C)c1      < 4.00
37  CCc1cc2c(cc1NC(=O)c1cc(F)cc3[nH]ncc13)CNC2        6.85
38  Cc1ccc(CN(C)C)cc1NC(=O)[C@@H](NC(=O)OCc1ccccc1)c1ccc(OCc2ccccc2)cc1      < 4.00
39  CCn1cc(-c2ccnc(C)c2)nc(N2CC[C@@H](CO)C2)c1=O      < 4.00
40  CC1(C)C(=O)Nc2ccc(C(=O)Nc3ccc4c(c3)CNC4)cc21        5.13
